A compilation of published Ki results with Adenosylhomocysteinase (Homo sapiens, UniProt P23526).
Sequence (P23526 whole entry): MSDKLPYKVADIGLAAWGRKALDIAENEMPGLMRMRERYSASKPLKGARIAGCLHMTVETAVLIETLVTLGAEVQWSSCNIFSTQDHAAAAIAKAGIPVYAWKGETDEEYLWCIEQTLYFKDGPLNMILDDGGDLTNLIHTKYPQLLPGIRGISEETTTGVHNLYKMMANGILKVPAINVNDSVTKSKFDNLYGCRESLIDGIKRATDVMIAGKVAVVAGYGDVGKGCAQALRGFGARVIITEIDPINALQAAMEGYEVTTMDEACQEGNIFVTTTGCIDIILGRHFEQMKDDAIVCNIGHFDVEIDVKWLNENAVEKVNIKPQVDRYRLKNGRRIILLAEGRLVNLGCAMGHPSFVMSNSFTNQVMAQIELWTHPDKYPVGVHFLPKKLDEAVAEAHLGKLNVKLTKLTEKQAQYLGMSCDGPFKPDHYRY
The reply should consist of the numeric value with the unit placed after it.

# Molecule, Ki
data = [
    ("Nc1nc(F)nc2c1ncn2[C@@H]1C[C@H]2O[C@H]2[C@H]1O", "20.3 µM"),
]

Lookup: # input molecule: Nc1ncnc2c1ncn2C1O[C@H](CS)[C@@H](O)[C@H]1O (stereo partly specified) ; wanted: its Ki
Found: 4 µM

Lookup: # input molecule: Nc1ncnc2c1ncn2C1O[C@H](/C=C(/F)Br)[C@@H](O)[C@H]1O (stereo partly specified) ; wanted: its Ki
Found: 3.9 µM

Lookup: # input molecule: "Nc1ncnc2c1ncn2[C@@H]1C[C@H]2O[C@H]2[C@H]1O" ; wanted: its Ki
Found: 12.4 µM

Lookup: # input molecule: Nc1ncnc2c1ncn2C1O[C@H](CC(=O)OCCCl)C(O)[C@H]1O (single isomer, unassigned) ; wanted: its Ki
Found: 302 µM

Lookup: # input molecule: Nc1ncnc2c1ncn2C1O[C@H](CC(=O)OC2CC2(F)F)C(O)[C@H]1O (single isomer, unassigned) ; wanted: its Ki
Found: 17 µM
